biological target: PDE4B: The catalytic domain of human PDE4B from S152-S528 (Homo sapiens); construct: His6 (N); thrombin cleavage site (N); made in house; host or cells: E. coli; assay: PDE4 IC50 determination by Scintillation Proximity Assay, PDE4B; type: biochemical; details: Table 3A, Formula III compounds; read-out: IC50 PDE4B
Sequence (Q07343 with tags, fused parts or gaps): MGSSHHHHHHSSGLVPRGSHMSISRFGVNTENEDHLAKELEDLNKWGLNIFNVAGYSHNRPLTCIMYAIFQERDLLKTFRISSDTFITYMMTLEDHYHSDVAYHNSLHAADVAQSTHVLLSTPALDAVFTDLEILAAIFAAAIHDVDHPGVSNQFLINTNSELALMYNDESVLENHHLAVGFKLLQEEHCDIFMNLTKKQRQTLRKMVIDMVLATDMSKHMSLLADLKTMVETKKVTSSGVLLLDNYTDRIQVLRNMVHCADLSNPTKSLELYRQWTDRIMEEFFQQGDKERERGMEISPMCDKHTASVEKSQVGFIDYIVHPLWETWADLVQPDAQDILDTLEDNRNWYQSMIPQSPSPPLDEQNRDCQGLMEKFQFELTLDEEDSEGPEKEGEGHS
quantity-name: IC50

compound: Cc1ccc2cccnc2c1NS(=O)(=O)c1cc(S(=O)(=O)c2ccccc2)cs1
IC50: > 10 µM

compound: Cc1ccc2cccnc2c1NS(=O)(=O)c1ccc(-c2ccccn2)s1
IC50: > 10 µM

compound: COc1cc(NS(=O)(=O)c2ccc(-c3ccon3)s2)c2ncccc2c1
IC50: > 10 µM

For the compound `CSc1nc(Nc2cccc(S(=O)(=O)Nc3cccc4cccnc34)c2)c2ccccc2n1` , give its measured IC50 value.
< 10 µM
